Attribution: ChEMBL document CHEMBL3817844

Test system: Schistosoma mansoni
Experiment: Antischistosomal activity against adult female Schistosoma mansoni BH derived from infected Swiss mouse assessed as reduction in motility measured after 72 hrs by automated image-based analysis
Type: functional, organism-based
Kindly state EC50 for each of the entries shown.
Numbers only, in µM.

* O=C(C1CCCCC1)N1CC(=O)N2CCc3ccccc3C2C1 (configuration not stated) [PRAZIQUANTEL] | 0.66

Would you kindly look at the next entry?
Challenge: Which EC50 value belongs to Fc1ccc([C@@H]2CCNC[C@H]2COc2ccc3c(c2)OCO3)cc1 [PAROXETINE] ?
Response given: 11.9

* * *

System: Schistosoma mansoni
Assay: Antischistosomal activity against adult male Schistosoma mansoni BH derived from infected Swiss mouse assessed as reduction in motility measured after 72 hrs by automated image-based analysis
Assay type: functional, organism-based
readout_name: EC50 (nM)
Give bare numbers, in nM.

Challenge: Which EC50 value belongs to "Fc1ccc([C@@H]2CCNC[C@H]2COc2ccc3c(c2)OCO3)cc1" ?
Response given: 2700
